Would you mind telling me the reported IC50 of each entry?
# System: A2780
# METHOD SUMMARY: Cytotoxicity against human A2780 cells by MTT assay
# Format: cell-based

Value (IC50, A2780) for record `C=C1CC[C@@H]2[C@H]([C@@H]3[C@H]1CC[C@]3(C)O)[C@@]2(C)/C=C/C=C(/C)CO` = > 10 µM

Value (IC50, A2780) for record `C=C1CC[C@@H]2[C@H]([C@@H]3[C@H]1CC[C@]3(C)O)[C@@]2(C)C/C=C/C(C)(C)O` = > 10 µM

Value (IC50, A2780) for record `C=C1CC[C@@H]2[C@H]([C@@H]3[C@H]1CC[C@]3(C)O)[C@@]2(C)C[C@@H]1C=C(C)C(=O)O1` = > 10 µM

Value (IC50, A2780) for record C=C1CC[C@@H]2[C@H]([C@@H]3[C@H]1CC[C@]3(C)O)[C@@]2(C)C(/C=C/C(C)(C)O)OC (some centres undefined) = > 10 µM
